Test: amyloid nucleation score (Sup35N fusion, yeast selection) (log enrichment); library NNK1; higher = more nucleation; inactive = no reads after selection;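 note: zero at mode of non-aggregating sequences after 7 days selection at 30°C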
Recorded measurements of amyloid nucleation score, one per entry
Field format: numeric only.

{"Substance": "HNQDSCIFGQYSDNEVNASV", "Observed Measurement": -1.47}
{"Substance": "MVVFMYVST", "Observed Measurement": 0.289}
{"Substance": "QMTCSD", "Observed Measurement": 1.6}
{"Substance": "CELPTRLF", "Observed Measurement": -0.143}
{"Substance": "SMHSLGSHEGSRRIPGLSFD", "Observed Measurement": -0.007}

Lookup result for WDEFGVDEWSYWLLLWYVAR ; measured amyloid nucleation score: 0.799

Lookup result for EDHVVYQSADRFLRNCNWEY ; measured amyloid nucleation score: 0.266

Lookup result for DMNDYSK ; measured amyloid nucleation score: -0.592

Lookup result for DDSSDTEVRLGYALAGIKVG ; measured amyloid nucleation score: -0.406

Lookup result for MVTCGYKDFK ; measured amyloid nucleation score: -1.7

Lookup result for FYIVCRNFKTYLPSLGF ; measured amyloid nucleation score: -1.12

Lookup result for DWQSVRKFLRSVVIRMVSLV ; measured amyloid nucleation score: -0.399

Lookup result for MSWNYCNDM ; measured amyloid nucleation score: -0.045

Lookup result for MIKYYYGSGTLS ; measured amyloid nucleation score: -0.429

Lookup result for HPALKWLCPGIERLCLAWSG ; measured amyloid nucleation score: 0.818

Lookup result for HTPLNRC ; measured amyloid nucleation score: -0.469

----------
Experiment: amyloid nucleation score (Sup35N fusion, yeast selection) (log enrichment); library NNK1; higher = more nucleation; inactive = no reads after selection
Recorded Metric: amyloid nucleation score
Field format: numeric only.

Recorded amyloid nucleation score, per entry:
{"Sequence Code": "RMMVPYNHFYKSLWSGSTAY", "Observed Measurement": 0.959}
{"Sequence Code": "MYGCFSGGSVFSSYAALFVI", "Observed Measurement": -0.766}
{"Sequence Code": "WSTGDVLVLVKLYYAFMCVI", "Observed Measurement": -0.819}
{"Sequence Code": "HFRVSDKDL", "Observed Measurement": 1.2}
{"Sequence Code": "GSGNSHLLYRSSNRCLVLYR", "Observed Measurement": -0.134}

Lookup result for CSQDYFIYYYPVLMLE ; measured amyloid nucleation score: -0.112

----------
Assay: amyloid nucleation score (Sup35N fusion, yeast selection) (log enrichment); library NNK1; higher = more nucleation; inactive = no reads after selection
Recorded Metric: amyloid nucleation score
Field format: numeric only.

{"Sequence Code": "GYTRGDDSGAVHSLSWVFAG", "amyloid nucleation score": -0.361}

Lookup result for IGYCRGHAYKMRYFSVRWFV ; measured amyloid nucleation score: -1.25

Lookup result for SAAVGLLVHQYRSSELQLFN ; measured amyloid nucleation score: 0.136

----------
Recorded measurements of amyloid nucleation score, one per entry
Test: amyloid nucleation score (Sup35N fusion, yeast selection) (log enrichment); library NNK2; higher = more nucleation; inactive = no reads after selection
Field format: numeric only.

{"Sequence Code": "CKEYMMIFMTIIKVYLNTYL", "amyloid nucleation score": -0.698}
{"Sequence Code": "CLYPLSVDVVSFHYCTTCCE", "amyloid nucleation score": 0.141}
{"Sequence Code": "FGNVMMTDAV", "amyloid nucleation score": -0.631}

Lookup result for VFDAKTFGGDTVFVAAEAHS ; measured amyloid nucleation score: -0.669

Lookup result for QNLASIDLDYFFSEYYPLLA ; measured amyloid nucleation score: -1.37

Lookup result for YFNNPLFVEDFWLSYVSMSY ; measured amyloid nucleation score: -0.749

Lookup result for SCNAGVGSIS ; measured amyloid nucleation score: -0.011

Lookup result for MMGECNFCSIGRH ; measured amyloid nucleation score: 4.83

Lookup result for IYSYYGCYLCRNCGLVKFSK ; measured amyloid nucleation score: 4.03

Lookup result for KRYLWTGN ; measured amyloid nucleation score: -0.534

Lookup result for FFRVRPFISYYWHTLLSVLW ; measured amyloid nucleation score: -1.24

Lookup result for HLTNLDFT ; measured amyloid nucleation score: -1.1

Lookup result for TRPCMFFRIELISLSTVLAR ; measured amyloid nucleation score: 0.552

Lookup result for RSCYNFGKGLCVFMTLARLW ; measured amyloid nucleation score: -0.82

Lookup result for DRTGGPIWVVGYPARGRAAL ; measured amyloid nucleation score: 0.99
